- PROTOCOL_NOTES: Permeability of compound in rat brain at 100 uM perfused for 60 secs by LC-MS analysis
- Type: ADME, tissue-based
- PROTOCOL_CONDITIONS: not told, other: brain perfusion, read-out: permeability
PROPERTY_MEASURED: Papp at 1 min, 100 µM (×10⁻⁶ cm/s)

In [3]: df
Out[3]:
                               input_smiles  numeric_result
0  N[C@@H](Cn1c(=O)n(Cc2ccsc2C(=O)O)c(=O)c2cscc21)C(=O)O            0.59

---

Listed compounds paired with reported pKi
- TARGET_OF_ASSAY: Glutamate receptor ionotropic, kainate 3 (Rattus norvegicus)
- Sequence (P42264 whole entry): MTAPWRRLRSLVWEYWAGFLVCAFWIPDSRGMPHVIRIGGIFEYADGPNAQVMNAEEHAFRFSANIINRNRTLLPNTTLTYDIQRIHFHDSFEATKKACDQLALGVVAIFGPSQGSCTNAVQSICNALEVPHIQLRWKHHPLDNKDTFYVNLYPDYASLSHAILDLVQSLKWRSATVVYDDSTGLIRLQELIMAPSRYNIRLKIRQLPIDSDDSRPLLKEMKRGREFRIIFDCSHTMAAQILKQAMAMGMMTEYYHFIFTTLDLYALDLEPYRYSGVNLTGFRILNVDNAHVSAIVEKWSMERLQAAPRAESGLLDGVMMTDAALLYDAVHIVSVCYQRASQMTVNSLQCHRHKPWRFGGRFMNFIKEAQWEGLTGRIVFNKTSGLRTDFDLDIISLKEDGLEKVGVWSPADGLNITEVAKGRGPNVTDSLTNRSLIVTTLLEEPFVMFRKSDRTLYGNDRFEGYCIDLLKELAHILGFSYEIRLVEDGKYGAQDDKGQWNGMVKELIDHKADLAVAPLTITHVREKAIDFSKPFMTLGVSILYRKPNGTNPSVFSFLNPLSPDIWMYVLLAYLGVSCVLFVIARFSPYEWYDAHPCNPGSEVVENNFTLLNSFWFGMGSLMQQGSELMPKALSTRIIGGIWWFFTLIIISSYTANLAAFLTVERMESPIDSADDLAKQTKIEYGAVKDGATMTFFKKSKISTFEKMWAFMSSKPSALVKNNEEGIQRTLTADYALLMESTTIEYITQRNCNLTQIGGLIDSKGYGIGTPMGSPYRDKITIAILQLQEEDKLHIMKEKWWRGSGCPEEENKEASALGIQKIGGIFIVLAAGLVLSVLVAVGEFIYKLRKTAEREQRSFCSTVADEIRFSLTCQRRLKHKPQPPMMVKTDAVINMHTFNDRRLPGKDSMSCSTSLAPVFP
- PROTOCOL_NOTES: Displacement of [3H]SYM2081 from recombinant homomeric rat GluK3 receptor expressed in baculovirus infected Sf9 insect cell membranes
pKi: −log10 of the molar value.
PROPERTY_MEASURED: pKi

                               input_smiles  numeric_result
0  N[C@@H](Cn1c(=O)n(Cc2nnc(O)o2)c(=O)c2cscc21)C(=O)O            4.00
1  N[C@@H](Cn1c2c(c(=O)[nH]c1=O)COC2)C(=O)O            3.95
2  CN1Cc2c(n(C[C@H](N)C(=O)O)c(=O)[nH]c2=O)C1            5.67
3  N[C@@H](Cn1c2c(c(=O)[nH]c1=O)CNC2)C(=O)O            4.74

---

- TARGET_OF_ASSAY: Glutamate receptor ionotropic, kainate 1 (Rattus norvegicus, UniProt P22756)
- Sequence (P22756 whole entry): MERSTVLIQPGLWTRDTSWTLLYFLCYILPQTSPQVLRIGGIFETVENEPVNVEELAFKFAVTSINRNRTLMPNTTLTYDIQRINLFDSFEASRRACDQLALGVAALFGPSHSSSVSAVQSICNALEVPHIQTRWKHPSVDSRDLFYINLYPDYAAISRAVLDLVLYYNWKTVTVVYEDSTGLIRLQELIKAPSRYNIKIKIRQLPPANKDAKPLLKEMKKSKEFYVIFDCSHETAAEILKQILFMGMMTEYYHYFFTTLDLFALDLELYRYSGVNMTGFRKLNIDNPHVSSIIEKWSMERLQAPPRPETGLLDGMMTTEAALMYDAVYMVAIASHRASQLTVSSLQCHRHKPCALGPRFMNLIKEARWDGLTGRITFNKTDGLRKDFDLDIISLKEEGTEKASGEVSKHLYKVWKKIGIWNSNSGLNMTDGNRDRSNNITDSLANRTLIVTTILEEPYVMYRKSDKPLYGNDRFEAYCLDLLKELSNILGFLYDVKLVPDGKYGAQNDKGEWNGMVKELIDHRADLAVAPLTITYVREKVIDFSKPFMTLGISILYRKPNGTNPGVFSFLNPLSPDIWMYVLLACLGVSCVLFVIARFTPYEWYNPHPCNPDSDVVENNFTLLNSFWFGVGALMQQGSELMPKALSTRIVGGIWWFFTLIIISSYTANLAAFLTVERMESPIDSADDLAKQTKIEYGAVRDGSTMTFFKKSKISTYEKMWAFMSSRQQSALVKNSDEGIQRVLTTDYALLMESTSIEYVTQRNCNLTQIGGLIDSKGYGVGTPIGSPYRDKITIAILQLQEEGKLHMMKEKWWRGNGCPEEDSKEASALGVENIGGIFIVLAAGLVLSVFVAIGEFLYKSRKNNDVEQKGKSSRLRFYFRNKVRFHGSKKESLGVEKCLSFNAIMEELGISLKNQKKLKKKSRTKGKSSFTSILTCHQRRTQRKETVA
- PROTOCOL_NOTES: Displacement of [3H]SYM2081 from recombinant homomeric rat GluK1 receptor expressed in baculovirus infected Sf9 insect cell membranes
PROPERTY_MEASURED: Ki (nM)

>>> print(df.to_string())
                               input_smiles  property_measured  numeric_result
0  CN1Cc2c(n(C[C@H](N)C(=O)O)c(=O)[nH]c2=O)C1                 Ki             356
1  N[C@@H](Cn1c2c(c(=O)[nH]c1=O)COC2)C(=O)O                 Ki             586
2  N[C@@H](Cn1c(=O)n(Cc2nnc(O)o2)c(=O)c2cscc21)C(=O)O                 Ki           36000
3  N[C@@H](Cn1c2c(c(=O)[nH]c1=O)CNC2)C(=O)O                 Ki             869

Just for reference, ChEMBL document CHEMBL4043288 is where these values come from.
